Assay: Single ascending dose study, plasma pharmacokinetics of Compound (1) and GHB
Type: in vivo, human
Settings: human, plasma, po, 0.5 g, Cohort 2 (0.50 g) single oral dose, fasted; read-out: Compound (1) plasma t1/2, Mean (converted)
Property: half-life

Prompt: Requested field: half-life. Item: CC(C)[C@H](N)C(=O)OCCCC(=O)O [Compound (1), 4-((L-valyl)oxy)butanoic acid]
Completion: 1.11 h

* * *

Assay: Single ascending dose study, plasma pharmacokinetics of Compound (1) and GHB
Assay type: in vivo, human
Details: human, plasma, po, 3 g, Cohort 4 (3.00 g) single oral dose, fasted; read-out: Compound (1) plasma t1/2, Median (converted)
Property: half-life (h)
Write the value in h as a bare number.

Prompt: Requested field: half-life. Item: CC(C)[C@H](N)C(=O)OCCCC(=O)O [Compound (1), 4-((L-valyl)oxy)butanoic acid]
Completion: 1.12

* * *

Test: Food effect and relative bioavailability crossover study, Compound (1) vs sodium oxybate
Conditions: human, plasma, po, 7.25 g, Compound (1) plasma Cmax, Mean, 7.25 g Compound (1) oral, Fasted
Property: Cmax (ng/mL)
Write the value in ng/mL as a bare number.

Prompt: Requested field: Cmax. Item: CC(C)[C@H](N)C(=O)OCCCC(=O)O
Completion: 27700

* * *

Experiment: Multiple ascending dose study, plasma pharmacokinetics of Compound (1) and GHB
Assay type: in vivo, human
Conditions: human, plasma, oral, 6 g/day, Cohort 8 (6.0 g/day divided into equal 2 doses), Dosing Day 10; read-out: Compound (1) plasma Cmax, Mean
Property: Cmax (ng/mL)
Write the value in ng/mL as a bare number.

Prompt: Requested field: Cmax. Item: CC(C)[C@H](N)C(=O)OCCCC(=O)O [Compound (1), 4-((L-valyl)oxy)butanoic acid]
Completion: 11500

* * *

Test: Multiple ascending dose study, plasma pharmacokinetics of Compound (1) and GHB
Type: in vivo, human
Conditions: human, plasma, oral, 6 g/day, Cohort 8 (6.0 g/day divided into equal 2 doses), Dosing Day 4; read-out: Compound (1) plasma Cmax, Median
Procedure: The plasma concentrations of Compound (1) and GHB in plasma in healthy human subjects were measured using liquid chromatography tandem mass-spectroscopy and evaluated using PHOENIX™ WINNONLIN® version 8.1 (Pharsight Corporation, USA) and MICROSOFT® EXCEL® (Microsoft Corporation, USA). All randomized subjects who received Compound (1), with available pharmacokinetic (PK) data and without relevant deviations interfering with the PK evaluations, were included. […]
Property: Cmax (ng/mL)
Write the value in ng/mL as a bare number.

Prompt: Requested field: Cmax. Item: CC(C)[C@H](N)C(=O)OCCCC(=O)O [Compound (1), 4-((L-valyl)oxy)butanoic acid]
Completion: 11500

* * *

Assay: Multiple ascending dose study, plasma pharmacokinetics of Compound (1) and GHB
Assay type: in vivo, human
Settings: human, plasma, oral, 6 g/day, Cohort 10 (6.0 g/day in a single dose), Dosing Day 10; read-out: Compound (1) plasma AUC0-inf, Mean
Property: AUC(0-inf)
State the value with its unit after it.

Prompt: Requested field: AUC(0-inf). Item: CC(C)[C@H](N)C(=O)OCCCC(=O)O [Compound (1), 4-((L-valyl)oxy)butanoic acid]
Completion: 16400 ng·h/mL

* * *

Experiment: Multiple ascending dose study, plasma pharmacokinetics of Compound (1) and GHB
Assay type: in vivo, human
Settings: human, plasma, oral, 6 g/day, Cohort 8 (6.0 g/day divided into equal 2 doses), Dosing Day 10; read-out: Compound (1) plasma T1/2, Mean (converted)
Property: half-life (min)
Write the value in min as a bare number.

Prompt: Requested field: half-life. Item: CC(C)[C@H](N)C(=O)OCCCC(=O)O
Completion: 20.4
